# Assay Protocol: NP TLC on unimpregnated control plate
# Type: physicochemical
# Experimental Setup: Rf value from unimpregnated NP plate (control); mobile phase pH 7.4
Property Measured: CNP

{"columns": ["Compound", "Property Measured", "Measurement"],
 "data": [
  ["CC[C@@H](CO)NCCN[C@@H](CC)CO [ethambutol]", "CNP", 0.19],
  ["CO[C@H]1/C=C/O[C@@]2(C)Oc3c(C)c(O)c4c(O)c(c(/C=N/N5CCN(C)CC5)c(O)c4c3C2=O)NC(=O)/C(C)=C\\C=C\\[C@H](C)[C@H](O)[C@@H](C)[C@@H](O)[C@@H](C)[C@H](OC(C)=O)[C@@H]1C [rifampicin]", "CNP", 0.73],
  ["CCCCN1CCCCC1C(=O)Nc1c(C)cccc1C (stereo not drawn) [bupivacaine]", "CNP", 0.67],
  ["COCCCC/C(=N\\OCCN)c1ccc(C(F)(F)F)cc1 [fluvoxamine]", "CNP", 0.34],
  ["CC(C)(C)NC[C@H](O)COc1nsnc1N1CCOCC1 [timolol]", "CNP", 0.34],
  ["CCS(=O)(=O)CCn1c([N+](=O)[O-])cnc1C [tinidazole]", "CNP", 0.89],
  ["CN(C)CCC=C1c2ccccc2COc2ccccc21 [doxepin]", "CNP", 0.30],
  ["CN(C)CCC=C1c2ccccc2CCc2ccccc21 [amitriptyline]", "CNP", 0.32],
  ["CC[C@@H](C(N)=O)N1CCCC1=O [levetiracetam]", "CNP", 0.92]
]}
